Hello, the source for this data is patent US20210388087A1, in case you need it.

molecular target: T1, CD3 epsilon homodimer protein (UniProt P07766 23-126); assay: SPR, antibody over immobilised CD3e homodimer;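 further: SPR at 25 °C with CD3 epsilon homodimer amine-coupled to a CM4 sensor chip and antibody flowed over as analyte in HBS-EP+ running buffer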
T1 construct: also called CD3 (CD3 epsilon)
T1 sequence (P07766 23-126): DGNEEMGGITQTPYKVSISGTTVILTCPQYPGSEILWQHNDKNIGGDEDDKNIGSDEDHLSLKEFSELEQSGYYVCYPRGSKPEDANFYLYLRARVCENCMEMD

BINDER	KD ratio to GLS3000
CE115HA000/GLS3000 V94P (antibody, IgG1, name in Kabat numbering, V domains shown, one-arm IgG1) VH: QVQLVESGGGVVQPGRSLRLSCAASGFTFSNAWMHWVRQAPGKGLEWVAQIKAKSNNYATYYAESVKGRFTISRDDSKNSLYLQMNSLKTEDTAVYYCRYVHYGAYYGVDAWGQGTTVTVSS VL: DIVMTQSPLSLPVTPGEPASISCRSSQSLVHSNRNTYLHWYQQKPGQAPRLLIYKVSNRFSGVPDRFSGSGSGTDFTLKISRVEAEDVGVYYCGQGTQPPYTFGQGTKLEIK	1.1
CE115HA000/GLS3000 R29A (antibody, IgG1, name in Kabat numbering, V domains shown, one-arm IgG1) VH: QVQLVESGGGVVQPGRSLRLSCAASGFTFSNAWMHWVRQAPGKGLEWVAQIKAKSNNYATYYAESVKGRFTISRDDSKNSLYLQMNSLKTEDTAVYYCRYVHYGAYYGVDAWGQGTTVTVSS VL: DIVMTQSPLSLPVTPGEPASISCRSSQSLVHSNANTYLHWYQQKPGQAPRLLIYKVSNRFSGVPDRFSGSGSGTDFTLKISRVEAEDVGVYYCGQGTQVPYTFGQGTKLEIK	1.15
CE115HA000/GLS3000 S25V (antibody, IgG1, name in Kabat numbering, V domains shown, one-arm IgG1) VH: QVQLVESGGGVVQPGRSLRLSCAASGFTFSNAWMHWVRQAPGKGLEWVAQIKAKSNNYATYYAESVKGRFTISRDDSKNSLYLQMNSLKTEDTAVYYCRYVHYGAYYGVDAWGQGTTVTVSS VL: DIVMTQSPLSLPVTPGEPASISCRVSQSLVHSNRNTYLHWYQQKPGQAPRLLIYKVSNRFSGVPDRFSGSGSGTDFTLKISRVEAEDVGVYYCGQGTQVPYTFGQGTKLEIK	0.74
